test: Particle characteristics of the prepared formulation by particle size analyzer (Dynamic Light Scattering, DLS); type: physicochemical; details: mRNA formulation; compound:DOPE:Cholesterol:DMG-PEG=50:10:38.5:1.5, N/P ratio 6; DLS
For each record, write down the corresponding PDI (PI).
One number for each entry.

Example entries and their recorded answers appear below.
CCCCCCC(OC(=O)CCCCCCCN(C)CCCCCCCC(=O)OC(CCCCCC)C1CC1)C1CC1 (stereo not drawn) [Formula G] = 0.17
CCCCCCC(OC(=O)CCCCCN(C)CCCCCC(=O)OC(CCCCCC)C1CC1)C1CC1 (stereo not drawn) [Formula B] = 0.12

PDI (PI) reading for CCCCCCCCC(OC(=O)CCCCCCCN(C)CCCCCCCC(=O)OC(CCCCCCCC)C1CC1)C1CC1 (stereo not drawn) [Formula A] : 0.09

* * *

For each record, write down the corresponding PDI (PI).
assay: Particle characteristics of the prepared formulation by particle size analyzer (Dynamic Light Scattering, DLS); type: physicochemical; conditions: mRNA formulation; compound:DOPE:Cholesterol:DMG-PEG=50:10:38.5:1.5, N/P ratio 6; DLS
Give bare numbers.

CCCCCCCCC(OC(=O)CCCCCCCN(CCO)CCCCCCCC(=O)OC(CCCCCCCC)C1CC1)C1CC1 (stereo not shown) = 0.10
CCCCCCCCC(C(=O)OCCCCCCCN(C)CCCCCCCOC(=O)C(CCCCCCCC)C1CC1)C1CC1 (stereo not shown) = 0.12

Hi there! I need PDI (PI) for each item below, if you can.
1. CCCCCCCCC(OC(=O)CCCCCCCN(C)CCCCCCCC(=O)OC(CCCCCCCC)C1CCCCC1)C1CCCCC1 (stereo not shown)
2. CCCCCCCCCCC(OC(=O)CCCCCCCN(C)CCCCCCCC(=O)OC(CCCCCCCCCC)C1CC1)C1CC1 (stereo not shown)

Found:
1: 0.07; 2: 0.12

* * *

For each record, write down the corresponding Zeta-potential.
experiment: Particle characteristics of the prepared formulation by particle size analyzer (Dynamic Light Scattering, DLS); format: physicochemical; settings: mRNA formulation; compound:DOPE:Cholesterol:DMG-PEG=50:10:38.5:1.5, N/P ratio 6
Numbers only, in mV.

Example entries and their recorded answers appear below.
CCCCCCCCC(OC(=O)CCCCCCCN(C)CCCCCCCC(=O)OC(CCCCCCCC)C1CC1)C1CC1 (stereo not drawn) = −10.96
CCCCCCC(OC(=O)CCCCCCCN(C)CCCCCCCC(=O)OC(CCCCCC)C1CC1)C1CC1 (stereo not drawn) = −6.93

Zeta-potential reading for CCCCCCC(OC(=O)CCCCCN(C)CCCCCC(=O)OC(CCCCCC)C1CC1)C1CC1 (stereo not drawn) : −4.30

* * *

experiment: Particle characteristics of the prepared formulation by particle size analyzer (Dynamic Light Scattering, DLS); format: physicochemical; conditions: mRNA formulation; compound:DOPE:Cholesterol:DMG-PEG=50:10:38.5:1.5, N/P ratio 6; DLS
For each record, write down the corresponding Z-average.
Numbers only, in nm.

Example entries and their recorded answers appear below.
CCCCCCCCC(C(=O)OCCCCCCCN(C)CCCCCCCOC(=O)C(CCCCCCCC)C1CC1)C1CC1 (stereo not shown) [Formula F] = 131.5
CCCCCCCCCCC(OC(=O)CCCCCCCN(C)CCCCCCCC(=O)OC(CCCCCCCCCC)C1CC1)C1CC1 (stereo not shown) [Formula C] = 120.0
CCCCCCC(OC(=O)CCCCCCCN(C)CCCCCCCC(=O)OC(CCCCCC)C1CC1)C1CC1 (stereo not shown) [Formula G] = 194.9
CCCCCCCCC(OC(=O)CCCCCCCN(C)CCCCCCCC(=O)OC(CCCCCCCC)C1CC1)C1CC1 (stereo not shown) [Formula A] = 135.0
CCCCCCCCC(OC(=O)CCCCCCCN(C)CCCCCCCC(=O)OC(CCCCCCCC)C1CCCCC1)C1CCCCC1 (stereo not shown) [Formula D] = 154.6
CCCCCCC(OC(=O)CCCCCN(C)CCCCCC(=O)OC(CCCCCC)C1CC1)C1CC1 (stereo not shown) [Formula B] = 183.3

Z-average reading for CCCCCCCCC(OC(=O)CCCCCCCN(CCO)CCCCCCCC(=O)OC(CCCCCCCC)C1CC1)C1CC1 (stereo not shown) [Formula E] : 127.4

* * *

Assay: Particle characteristics of the prepared formulation by particle size analyzer (Dynamic Light Scattering, DLS)
Assay type: physicochemical
Settings: mRNA formulation; compound:DOPE:Cholesterol:DMG-PEG=50:10:38.5:1.5, N/P ratio 6
Protocol: According to the following table 1, the materials required for preparing the formulation were dissolved in each dilution solvent and prepared at the required concentration. When dissolving, the materials were kept at room temperature and then the solvent was added to dissolve them. The required amounts of the raw materials were mixed in order to meet the N/P ratio (amine group of lipid/phosphate group of mRNA) of 6 and each compound of formulas A to G:DOPE:Cholesterol:DMG-PEG=50:10:38.5:1.5. […]
For each record, write down the corresponding Zeta-potential.
Give bare numbers, in mV.

Example entries and their recorded answers appear below.
CCCCCCCCC(C(=O)OCCCCCCCN(C)CCCCCCCOC(=O)C(CCCCCCCC)C1CC1)C1CC1 (stereo not shown) [Formula F] = −6.24
CCCCCCCCC(OC(=O)CCCCCCCN(CCO)CCCCCCCC(=O)OC(CCCCCCCC)C1CC1)C1CC1 (stereo not shown) [Formula E] = −4.69
CCCCCCCCCCC(OC(=O)CCCCCCCN(C)CCCCCCCC(=O)OC(CCCCCCCCCC)C1CC1)C1CC1 (stereo not shown) [Formula C] = −7.57

# ---- query compound ----
Zeta-potential reading for CCCCCCCCC(OC(=O)CCCCCCCN(C)CCCCCCCC(=O)OC(CCCCCCCC)C1CCCCC1)C1CCCCC1 (stereo not shown) [Formula D] : −2.37

Cited source: patent US20260209171A1
